Test: yeast display, Sf9 membrane polyspecificity reagent, FACS + sequencing; frameworks hold sequencing errors
READOUT_NAME: polyreactivity (PSR sort gate)

[[record]]
sequence = "QVQLVESGGGLVQAGGSLRLSCAASGFIFRYYAMGWYRQAPGKERELVAAISYSGGYTYYADSVKGRFTISRDNAKNTVYLQMNSLKPEDTAVYYCAAVLRTRDHPQPNYEYWGQGTQVTVSS"
result = "high polyreactivity"

[[record]]
sequence = "QVQLVESGGGLVQAGGSLRLSCAASGRIFVINAMGWYRQAPGKERELVAAISSSGGSTSYADSVKGRFTISRDNAKNTVYLQMNSLKPEDTAVYYCAAKPRVRRVDGYYWGQGSQVTVSS"
result = "high polyreactivity"

